tested-system: Adenosine receptor A3 (Homo sapiens, UniProt P0DMS8)
pKi: −log10 of the molar value.
assay-endpoint: pKi

- CC(C)n1cc2c(Cl)nc(NC(=O)c3ccccc3)nc2n1: 4.89
- CC(C)(C)Cn1cc2c(Cl)nc(NC(=O)Cc3ccccc3)nc2n1: 4.96
- O=C(Nc1nc(Cl)c2cn(CCc3ccccc3)nc2n1)c1ccccc1: 5.07

###

Overview of reported Ratio Ki across a group of molecules:
tested-system: Adenosine receptors; A1 & A3 (Homo sapiens) (UniProt P30542+P0DMS8)
Sequence (P0DMS8 whole entry, looked up): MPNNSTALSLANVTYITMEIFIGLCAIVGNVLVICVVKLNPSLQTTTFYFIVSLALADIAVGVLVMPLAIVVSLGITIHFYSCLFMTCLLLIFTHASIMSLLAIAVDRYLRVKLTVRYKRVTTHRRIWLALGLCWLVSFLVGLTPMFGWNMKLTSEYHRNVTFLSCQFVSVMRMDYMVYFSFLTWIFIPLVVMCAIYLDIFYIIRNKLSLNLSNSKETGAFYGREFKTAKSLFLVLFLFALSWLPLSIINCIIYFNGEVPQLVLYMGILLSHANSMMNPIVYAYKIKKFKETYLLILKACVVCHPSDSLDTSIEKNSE
Sequence (P30542 whole entry, looked up): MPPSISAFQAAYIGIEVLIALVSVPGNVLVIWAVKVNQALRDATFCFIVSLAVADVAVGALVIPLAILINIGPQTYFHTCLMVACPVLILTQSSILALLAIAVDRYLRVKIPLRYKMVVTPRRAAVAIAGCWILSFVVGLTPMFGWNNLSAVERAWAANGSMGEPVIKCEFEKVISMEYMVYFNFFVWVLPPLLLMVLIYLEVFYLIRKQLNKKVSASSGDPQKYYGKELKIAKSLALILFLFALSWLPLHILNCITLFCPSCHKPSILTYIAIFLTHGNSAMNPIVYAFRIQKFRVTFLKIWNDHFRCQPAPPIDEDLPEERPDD
assay-explanation: Selectivity ratio of Ki for human adenosine A1 receptor to Ki for human adenosine A3 receptor
assay-endpoint: Ratio Ki

- CCOC(=O)c1nc(NC(=O)c2ccc(C)cc2)nc2nn(CC(C)(C)C)cc12: > 111
- O=C(Nc1nc(Cl)c2cn(CCc3ccccc3)nc2n1)c1ccc(C(F)(F)F)cc1: > 21.4
- Cn1cc2c(Cl)nc(NC(=O)c3ccc(F)cc3)nc2n1: > 3.1
